- target desc: human CPSF30 (residues 62–244) Y127A mutant (human, UniProt O95639-2 62-244, Y127A)
- assay explanation: fluorescence polarisation
Ends that are not written are not given here. * marks the point of attachment. Fluorescein(5-Mal) = O=C1OC2(c3ccc(O)cc3Oc3cc(O)ccc32)c2ccc(N3C(=O)CC(*)C3=O)cc21
property measured: Kd (nM)
Please reply with the bare figure in nM and do not write the unit itself.

// recorded Kd for C(Fluorescein(5-Mal))FEDKPWRKPGADLSDYFNYGFNEDTWKAYSEKQKRIRMGLE (domain or fragment, human, UniProt Q6UN15 159-200, looked up) [hFip1 (residues 159–200) S159C/C189S mutant, FAM-labeled] : 220
